SYSTEM TESTED: HLA-A*02:01
ASSAY NAME: IEDB peptide-MHC binding, purified MHC/competitive/radioactivity; bounds were set here for any values at or beyond the usual limits of such assays
CONDITION LABEL: source organism: Vaccinia virus WR
# binning rule on IC50: label 0 = under 200 nM, label 1 = from 200 nM up to 400 nM, label 2 = 400 nM and over

[[record]]
sequence_entry = "DLFMSHVKSV"
system_tested = "HLA-A*02:01"
class_name = "label 2"

[[record]]
sequence_entry = "VIPDELIDV"
system_tested = "HLA-A*02:01"
class_name = "label 1"

[[record]]
sequence_entry = "FIPIIYSKA"
system_tested = "HLA-A*02:01"
class_name = "label 0"

[[record]]
sequence_entry = "IASILSLETV"
system_tested = "HLA-A*02:01"
class_name = "label 2"

[[record]]
sequence_entry = "KLYLVDYGL"
system_tested = "HLA-A*02:01"
class_name = "label 0"

[[record]]
sequence_entry = "LLEMKYALI"
system_tested = "HLA-A*02:01"
class_name = "label 2"

[[record]]
sequence_entry = "YLLPGFVLT"
system_tested = "HLA-A*02:01"
class_name = "label 0"

[[record]]
sequence_entry = "FILHRLHEI"
system_tested = "HLA-A*02:01"
class_name = "label 0"


Request: Textbook exercise: identify the category of the sequence given here, `NTDHPLSINV` , according to its measured value.
Result: label 1

Request: Proceed to `HISIKVKNHI`
Result: label 1

Request: Proceed to `GLYIPGTSVI`
Result: label 2

All figures here come from the Immune Epitope Database (IEDB).
